Target: Aldo-keto reductase family 1 member A1 (Homo sapiens)
Sequence (P14550 whole entry): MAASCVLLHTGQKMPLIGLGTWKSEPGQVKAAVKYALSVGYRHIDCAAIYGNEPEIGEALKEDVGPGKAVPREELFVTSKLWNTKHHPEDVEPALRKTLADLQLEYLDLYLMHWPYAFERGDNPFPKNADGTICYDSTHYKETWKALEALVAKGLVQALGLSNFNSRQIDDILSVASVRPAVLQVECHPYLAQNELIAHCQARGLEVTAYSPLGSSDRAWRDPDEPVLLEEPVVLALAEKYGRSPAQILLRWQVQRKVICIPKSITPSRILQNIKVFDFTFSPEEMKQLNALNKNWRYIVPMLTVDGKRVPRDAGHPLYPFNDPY
Test: Inhibition of human recombinant AKR1A1 expressed in Escherichia coli BL21 cells using D-glucuronate as substrate by spectrophotometry
VALUE TYPE: pIC50
Notebook: values listed as pIC50 are -log10 of the concentration (mol/L).

Solved entries:
Problem: API: value(readout= pIC50, system= Aldo-keto reductase family 1 member A1 (Homo sapiens), query= O=C(O)Cn1c2c(c3cc(F)ccc31)CCN(Cc1ccccc1)C2=S )
Result: 4.72

Problem: // same read-out, input: O=C(O)Cn1c2c(c3cc(Br)ccc31)CCN(Cc1ccccc1)C2=S
Result: 4.96

Problem: // same read-out, input: O=C(O)Cn1c2c(c3c(F)cc(F)cc31)CCN(Cc1ccccc1)C2=S
Result: 5.33

Problem: // same read-out, input: O=C(O)Cn1c2c(c3ccccc31)CCN(Cc1ccc(Br)cc1)C2=S
Result: 4.85

Problem: // same read-out, input: O=C(O)Cn1c2c(c3cc(Cl)ccc31)CCN(Cc1ccccc1)C2=S
Result: 4.82

New cases:
Problem: API: value(readout= pIC50, system= Aldo-keto reductase family 1 member A1 (Homo sapiens), query= O=C(O)Cn1c2c(c3ccccc31)CCN(Cc1ccccc1)C2=S )
Result: 5.02

Problem: // same read-out, input: O=C(O)Cn1c2c(c3cc(I)ccc31)CCN(Cc1ccccc1)C2=S
Result: 4.96

Problem: // same read-out, input: O=C(O)Cn1c2c(c3cc(C(=O)O)ccc31)CCN(Cc1ccccc1)C2=S
Result: 4.28

Problem: // same read-out, input: COc1ccc2c(c1)c1c(n2CC(=O)O)C(=S)N(Cc2ccccc2)CC1
Result: 4.92

====

Molecular target: Aldo-keto reductase family 1 member B10 (Homo sapiens)
Sequence (O60218 whole entry): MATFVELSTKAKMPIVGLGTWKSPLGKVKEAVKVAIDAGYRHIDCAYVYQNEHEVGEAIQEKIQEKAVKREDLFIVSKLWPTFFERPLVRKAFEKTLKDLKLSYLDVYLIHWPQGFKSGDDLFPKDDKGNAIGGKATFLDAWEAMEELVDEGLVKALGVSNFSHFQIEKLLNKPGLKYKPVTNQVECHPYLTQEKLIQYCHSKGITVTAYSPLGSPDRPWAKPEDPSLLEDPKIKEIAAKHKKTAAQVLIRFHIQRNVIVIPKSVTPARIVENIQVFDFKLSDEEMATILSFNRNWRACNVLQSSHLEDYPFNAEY
Assay: Inhibition of recombinant N-His6-tagged AKR1B10 expressed in Escherichia coli BL21 cells using pyridine-3-aldehyde as substrate by spectrophotometry
For each record, check the reported IC50: if it is below 2000 nM write Criterion met, else write Criterion not met.

Problem: Is the reported IC50 for O=C(O)Cn1c2c(c3cc(C(=O)O)ccc31)CCN(Cc1ccccc1)C2=S strictly below 2000 nM?
Result: Criterion not met

New cases:
Problem: Is the reported IC50 for O=C(O)Cn1c2c(c3cc(I)ccc31)CCN(Cc1ccccc1)C2=S strictly below 2000 nM?
Result: Criterion met

Problem: // same read-out, input: O=C(O)Cn1c2c(c3c(Cl)cc(Cl)cc31)CCN(Cc1ccccc1)C2=S
Result: Criterion not met

Problem: // same read-out, input: O=C(O)Cn1c2c(c3ccccc31)CCN(Cc1ccc(Br)cc1)C2=S
Result: Criterion met

Problem: // same read-out, input: O=C(O)Cn1c2c(c3c(F)cc(F)cc31)CCN(Cc1ccccc1)C2=S
Result: Criterion met

Problem: // same read-out, input: O=C(O)Cn1c2c(c3cc(Br)ccc31)CCN(Cc1ccccc1)C2=S
Result: Criterion met

Problem: // same read-out, input: O=C(O)Cn1c2c(c3ccc(Cl)cc31)CCN(Cc1ccccc1)C2=S
Result: Criterion met

Problem: // same read-out, input: O=C(O)Cn1c2c(c3c(F)cc(F)cc31)CCN(CCc1ccccc1)C2=S
Result: Criterion met

Problem: // same read-out, input: O=C(O)Cn1c2c(c3ccccc31)CCN(Cc1ccc(Br)cc1F)C2=S
Result: Criterion met

Problem: // same read-out, input: O=C(O)Cn1c2c(c3ccccc31)CCN(c1ccccc1)C2=S
Result: Criterion not met

src = ChEMBL document CHEMBL1944621
